Collected IC50 for 72 kDa type IV collagenase (Homo sapiens, UniProt P08253) across several studies; molecules listed below.
endpointName: IC50 (nM)

The cases that follow already have their IC50 on record.
COC(=O)N1CC2(CC2)C[C@H](C(=O)NO)[C@H]1C(=O)N1CCC(c2ccccc2)CC1: 472
O=C(CCc1ccc(C(F)(F)F)cc1)NC[C@@]1(C2CC2)NC(=O)NC1=O: 310
CNC(=O)[C@@H](NC(=O)[C@H](CC(C)C)[C@H](C)C(=O)NO)c1ccccc1: 7.5
COc1ccc(-c2ccc(OCC(CN3C(=O)N(C)C(C)(C)C3=O)N(O)C=O)cc2)cc1 (configuration not stated): 4
CN1C(=O)N(CCC(COc2ccc(-c3ccc(C#N)cc3)cc2)N(O)C=O)C(=O)C1(C)C (configuration not stated): 45000
O=C(N[C@@H]1CC=CCN(O)C1=O)c1ccc(Oc2ccc(Cl)cc2)cc1: 2320

[a] C[C@H]1c2cccc(O)c2C(=O)C2=C(O)[C@]3(O)C(=O)C(C(N)=O)=C(O)[C@@H]([N+](C)(C)C)C3[C@H](O)C21.[I-] (some centres not stated)
[b] O=C(OCc1cc(F)c(F)cc1F)c1cccc(=O)[nH]1
Parameter check: reported IC50 is higher for which label, a or b ? Let me know the label of the one you choose.
b
